Ref: patent US6096504A

TEST_NAME: GST conjugation of 1,2-epoxy-3-(p-nitrophenoxy)propane with glutathione (HPLC)
Assay type: biochemical
EXPERIMENTAL_SETUP: purified enzyme, 0.4 mM electrophilic substrate, 4 mM glutathione, 0.1 M MOPS pH 7.0
MEASUREMENT_NAME: activity of enzyme with 1,2-epoxy-3-(p-nitrophenoxy)propane (nmol/min/mg)
Just the number please, in nmol/min/mg, no unit attached.

Identify activity of enzyme with 1,2-epoxy-3-(p-nitrophenoxy)propane associated with the molecule cs1.pk0010.c5: maize class I GST enzyme encoded by cDNA clone, expressed in E. coli (protein) MAAGLQVFGQPASTDVARVLTCLFEKKLEFELVRIDTFKTHHRLPEFIRLRDPNGQVTFKHGDKTLVDSRDICRYVCNQFPNYGNKSLYGSGALERASIEQWLQAEAQNFGPPSSALVFQLAFVPHLSHLGVRQDPAVIAENEDKLKQVLDVYDEILSKNEYLAGDEFTLADLSHLPNSHYIVNTERGRKLFTNKKNVAKWYDRLSKRETWVQVVKMQKEHPGAFK
0

Identify activity of enzyme with 1,2-epoxy-3-(p-nitrophenoxy)propane associated with the molecule ceb1.pk0017.a5: maize class I GST enzyme encoded by cDNA clone, expressed in E. coli (protein) MAAPVTVYGPMLSPAVARVAACLLEKDVPFQIEPVDMSKGEHKSPSFLKLQPFGQVPAFKDHLTTVFESRAICRYICDQYADSGNQALFGKKEDGAVGRAAIEQWIESEGQSFNPPSLAIIFQLAFAPMMGRTTDLAVVEQNEAKLAKVLDVYDQRLGESQYFAGDDFSPGRPCALAQCRFPCEQNQQGWLDHREKESC
0
